test: Single- and multiple-dose pharmacokinetic and dose-proportionality study of oxymorphone IR tablets in healthy subjects; conditions: both, human, plasma, oral, 20 mg, Cmax, mean, steady state, oxymorphone IR 20 mg q6 h
ASSAY ENDPOINT: Cmax (ng/mL)

>>> quantitative_readout("CN1CC[C@]23c4c5ccc(O)c4O[C@H]2C(=O)CC[C@@]3(O)[C@H]1C5")
7.33

* * *

assay: Single- and multiple-dose pharmacokinetic and dose-proportionality study of oxymorphone IR tablets in healthy subjects; details: both, human, plasma, oral, 20 mg
ASSAY ENDPOINT: AUC(0-inf) (ng·h/mL)

>>> quantitative_readout("CN1CC[C@]23c4c5ccc(O)c4O[C@H]2C(=O)CC[C@@]3(O)[C@H]1C5")
20.1

* * *

test: Single- and multiple-dose pharmacokinetic and dose-proportionality study of oxymorphone IR tablets in healthy subjects; conditions: both, human, plasma, oral, 20 mg, t1/2 (terminal elimination half-life), mean, single dose oxymorphone IR 20 mg
ASSAY ENDPOINT: half-life (h)

>>> quantitative_readout("CN1CC[C@]23c4c5ccc(O)c4O[C@H]2C(=O)CC[C@@]3(O)[C@H]1C5")
9.43

* * *

test: Single- and multiple-dose pharmacokinetic and dose-proportionality study of oxymorphone IR tablets in healthy subjects; conditions: both, human, plasma, oral, 5 mg, Cmax, mean, single dose oxymorphone IR 5 mg
ASSAY ENDPOINT: Cmax (ng/mL)

>>> quantitative_readout("CN1CC[C@]23c4c5ccc(O)c4O[C@H]2C(=O)CC[C@@]3(O)[C@H]1C5")
1.1

* * *

test: Single- and multiple-dose pharmacokinetic and dose-proportionality study of oxymorphone IR tablets in healthy subjects; conditions: both, human, plasma, oral, 10 mg
ASSAY ENDPOINT: concentration at 7 day (ng/mL)

>>> quantitative_readout("CN1CC[C@]23c4c5ccc(O)c4O[C@H]2C(=O)CC[C@@]3(O)[C@H]1C5 [Oxymorphone, oxymorphone]")
0.99

* * *

experiment: Single- and multiple-dose pharmacokinetic and dose-proportionality study of oxymorphone IR tablets in healthy subjects; settings: both, human, plasma, oral, 5 mg, Cmax, mean, steady state, oxymorphone IR 5 mg q6 h
ASSAY ENDPOINT: Cmax (ng/mL)

>>> quantitative_readout("CN1CC[C@]23c4c5ccc(O)c4O[C@H]2C(=O)CC[C@@]3(O)[C@H]1C5 [Oxymorphone, oxymorphone]")
1.73

* * *

experiment: Single- and multiple-dose pharmacokinetic and dose-proportionality study of oxymorphone IR tablets in healthy subjects; conditions: both, human, plasma, oral, 10 mg, Cmax, mean, steady state, oxymorphone IR 10 mg q6 h
ASSAY ENDPOINT: Cmax (ng/mL)

>>> quantitative_readout("CN1CC[C@]23c4c5ccc(O)c4O[C@H]2C(=O)CC[C@@]3(O)[C@H]1C5")
3.51

* * *

assay: Single- and multiple-dose pharmacokinetic and dose-proportionality study of oxymorphone IR tablets in healthy subjects; conditions: both, human, plasma, oral, 10 mg
ASSAY ENDPOINT: AUC(0-inf) (ng·h/mL)

>>> quantitative_readout("CN1CC[C@]23c4c5ccc(O)c4O[C@H]2C(=O)CC[C@@]3(O)[C@H]1C5 [Oxymorphone, oxymorphone]")
9.1

* * *

assay: Single- and multiple-dose pharmacokinetic and dose-proportionality study of oxymorphone IR tablets in healthy subjects; details: both, human, plasma, oral, 20 mg
ASSAY ENDPOINT: concentration at 7 day (ng/mL)

>>> quantitative_readout("CN1CC[C@]23c4c5ccc(O)c4O[C@H]2C(=O)CC[C@@]3(O)[C@H]1C5")
2.31

* * *

test: Single- and multiple-dose pharmacokinetic and dose-proportionality study of oxymorphone IR tablets in healthy subjects; conditions: both, human, plasma, oral, 10 mg, Cmax, mean, single dose oxymorphone IR 10 mg
ASSAY ENDPOINT: Cmax (ng/mL)

>>> quantitative_readout("CN1CC[C@]23c4c5ccc(O)c4O[C@H]2C(=O)CC[C@@]3(O)[C@H]1C5")
1.93

* * *

experiment: Single- and multiple-dose pharmacokinetic and dose-proportionality study of oxymorphone IR tablets in healthy subjects; settings: both, human, plasma, oral, 20 mg, elimination half-life (t1/2) across doses, single dose, oxymorphone IR 5, 10 and 20 mg
ASSAY ENDPOINT: half-life

>>> result("CN1CC[C@]23c4c5ccc(O)c4O[C@H]2C(=O)CC[C@@]3(O)[C@H]1C5")
"7.3 to 9.4 h"
